The reported numbers originate from PubChem BioAssay (NCI).

The reader will find reported growth values listed item by item below.
tested on: MOLT-4 leukemia; assay: NCI-60 one-dose screen, 48 h (100 = growth as untreated, 0 = no growth, -100 = all killed); settings: 10 µM unless noted
About 83,000 compounds went through this panel and 20% of them were active in at least one assay; those are over-represented in the sample as a whole.
Please respond with the number in % and leave the unit unwritten.

// solved cases for growth follow
# COMPOUND, ENDPOINT VALUE
rows = [
    ("CC(=O)O[C@H](C[C@H](C(C)C)N(C)C(=O)[C@@H](NC(=O)[C@H]1CCCCN1C)C(C)C)c1nc(C(=O)N[C@@H](Cc2ccccc2)C[C@H](C)C(=O)O)c(CCOCc2ccccc2)s1", 11),
    ("CCCCCCCCCCCCCCCCCC1OC[C@@H](COC(=O)O[C@@H](C(=O)O[C@H]2C[C@@]3(O)[C@@H](OC(=O)c4ccccc4)[C@@H]4[C@]5(OC(C)=O)CO[C@@H]5C[C@H](O)[C@@]4(C)C(=O)[C@H](OC(C)=O)C(=C2C)C3(C)C)[C@@H](NC(=O)c2ccccc2)c2ccccc2)O1 (stereo partly drawn)", 58.7),
    ("C[n+]1c(/C=C/c2ccc(N(CCCl)CCCl)cc2)sc2ccccc21", 36.8),
    ("CN(C)C(=O)Oc1ccccc1-c1ccccc1", 89.9),
]

Data point: CC1(C)N=C(N)N=C(N)N1c1ccc(CCCCc2ccc(Cl)c(S(=O)(=O)F)c2)c(Cl)c1 ; growth = -33.1

Quick note, growth for c1ccc(Nc2nc(-c3ccccc3)c[se]2)cc1 landed at 76.2

Quick note, growth for Clc1cccc(NCOOC2(OOCNc3cccc(Cl)c3)CCCCCC2)c1 landed at 92.7

Lab note: measured growth of C=CC1=C[C@@H]2[C@@H]3O[C@]4(CC[C@H](O4)[C@@H](C)C[C@@H](O)C3=O)C[C@H](O)C3=NCC[C@@]32CC1 was 0.671

====

growth values, listed per item
tested on: SN12C renal; experiment: NCI-60 one-dose screen, 48 h (100 = growth as untreated, 0 = no growth, -100 = all killed); conditions: 10 µM unless noted
About 83,000 compounds went through this panel and 20% of them were active in at least one assay; those are over-represented in the sample as a whole.
Please reply with the bare figure in % and do not write the unit itself.

Below, 5 compounds whose answers are already recorded.
# COMPOUND, growth / %
data = [
    ("COP(=O)(OC)C(O)c1ccc(Cl)cc1 (stereo unspecified)", 108),
    ("Cn1cc(C=O)c2nccnc21", 104),
    ("COC(=O)[C@@]1(C)CC[C@]2(C)CC[C@]3(C)C4=CC(=O)c5c(cc(O)c(O)c5C)[C@]4(C)CC[C@@]3(C)[C@@H]2C1", 61.7),
    ("COc1cc(NCCCN=C(N)N)c2ncccc2c1", 2.57),
    ("O=[N+]([O-])CC(O)C(Cl)(Cl)Cl (stereo unspecified)", 106),
]

In plain terms, O=P(Oc1ccc(Cl)cc1)(N1CC1)N1CC1 has a documented growth of 86.7

====

test system: T-47D breast; experiment: NCI-60 one-dose screen, 48 h (100 = growth as untreated, 0 = no growth, -100 = all killed); conditions: 10 µM unless noted
Compounds without any hit were thinned out: in the full panel of roughly 83,000, 20% have a hit.
Each entry below lists one item and its recorded growth value.
Only the number, expressed in %, is required.

# example entries with known answers
# COMPOUND, VALUE UNITS, growth
rows = [
    ("c1cnc2[nH]cc(-c3csc(-c4cn(CCCCN5CCCCC5)c5ccccc45)n3)c2c1", "%", 79.4),
    ("C[N+](C)(C)Cc1cc(Cl)ccc1O", "%", 99.4),
]

Reported growth for Cn1cc(-c2csc(-c3cn(CCCCN4CCCCC4)c4ccccc34)n2)c2cccnc21 was 88.4

Recorded growth (compound CC1(C)N=C(N)N=C(N)N1c1ccc(CCC(=O)Nc2ccc(S(=O)(=O)F)cc2)c(Cl)c1 ): 70.5

The value of growth measured for the compound COc1ccc(/C=C\c2cc(OC)c(OC)c(OC)c2)c(NS(=O)(=O)c2ccc(F)cc2)c1O turned out to be 103

In plain terms, Cn1cc(-c2csc(-c3cn(CCCCN4CCCCC4)c4ccc(F)cc34)n2)c2cccnc21 has a documented growth of 81.5

The measured growth associated with C/C(=C\c1ccn(-c2ccc(N)cc2)n1)[C@@H]1C[C@@H]2O[C@]2(C)CCC[C@H](C)[C@H](O)[C@@H](C)C(=O)C(C)(C)[C@@H](O)CC(=O)O1 reads 42.7

Lab book: growth of CC(C)=CCc1c(O)c(C(=O)CC(C)C)c(O)c2c(-c3ccccc3)cc(=O)oc12 noted as 33.4

NC1CC2CCCCC2CC1(O)c1ccccc1 (centres undefined) yielded growth of 99.5
